All figures here come from patent US10351539B2.

experiment: Biodistribution in healthy and SRC bearing rats at 1 h after i.v. injection of radiolabelled compounds; type: in vivo; conditions: healthy and SRC bearing rats, mean ± SD (n = 3)
List of Kidney values.
Hi! Could you send only the number? It should be in % ID/g, unit omitted.

Inquiry: Look up Kidney for this compound: CC[N+](CC)(CC)CCCN1CCCNCCN(Cc2ccccn2)CCCNCC1.[64Cu+2] [^64Cu-27]
Reply text: 7.6

Inquiry: Look up Kidney for this compound: CC[N+](CC)(CC)CCCN1CCCN2CCN(CCCN(CC(=O)OC(C)(C)C)CC1)CC2.[64Cu+2] [^64Cu-13]
Reply text: 1.06

Inquiry: Look up Kidney for this compound: CC[N+](CC)(CC)CCCN1CCCN(Cc2ccccn2)CCNCCCN(Cc2ccccn2)CC1.[64Cu+2] [^64Cu-30]
Reply text: 9.2

Others:
Inquiry: Look up Kidney for this compound: CC[N+](CC)(CC)CCCN1CCCN2CCN(CCCN(CC(=O)O)CC1)CC2.[64Cu+2] [^64Cu-14]
Reply text: 0.73

Inquiry: Look up Kidney for this compound: CC[N+](CC)(CC)CCCN1CCNCCNCCNCCNCC1.[64Cu+2] [^64Cu-2]
Reply text: 16.4

Inquiry: Look up Kidney for this compound: CC[N+](CC)(CC)CCCN1CCCNCCNCCCNCC1.[64Cu+2] [^64Cu-5]
Reply text: 27.5
